- Test system: Z138, JeKo-1
- experimental-protocol: IC50 cell-based assay, suspension cells, Z138, JeKo-1
- reported-conditions: Lymphoma, Mantle cell, read-out: IC50 of Compounds in Suspension Cell Types
Parameter IC50: see the listing below.

Study these solved cases before continuing.
- Cc1oc(-c2ccccc2)cc1C(=O)Nc1cc(C(F)(F)F)cc(C(F)(F)F)c1: > 20 µM
- O=C(Nc1cc(F)cc(C(F)(F)F)c1)c1cc(-c2ccc(Cl)cc2)oc1C(F)(F)F: < 5 µM
- O=C(Nc1cc(C(F)(F)F)cc(C(F)(F)F)c1)c1cc(-c2ccccc2)oc1C(F)(F)F: < 5 µM

From here, focus on the item given below.
q: Determine its reported IC50: `O=C(Nc1cc(F)cc(C(F)(F)F)c1)c1cc(-c2ccccc2)oc1C(F)(F)F`
a: 5 to 10 µM

* * *

The reader will find reported IC50 values listed item by item below.
- Tested on: Caki-1
- experimental-protocol: IC50 cell-based assay, adherent cells, Caki-1
- reported-conditions: Homo sapiens, Kidney, clear cell carc., skin met, 72 hours, read-out: IC50 of Compounds in Adherent Cell Types

• O=C(Nc1cc(C(F)(F)F)cc(C(F)(F)F)c1)c1cc(-c2ccc(Cl)cc2)oc1C(F)(F)F = 5 to 10 µM
• O=C(Nc1cc(F)cc(C(F)(F)F)c1)c1cc(-c2ccc(Cl)cc2)oc1C(F)(F)F = 5 to 10 µM
• O=C(Nc1cc(C(F)(F)F)cc(C(F)(F)F)c1)c1cc(-c2ccccc2)oc1C(F)(F)F = > 20 µM

q: Kindly indicate its recorded IC50. Item: `O=C(Nc1cc(C(F)(F)F)cc(C(F)(F)F)c1)c1cc(-c2ccc(Br)cc2)oc1C(F)(F)F`
a: 5 to 10 µM

q: Please give measured IC50 of the following entry: `O=C(Nc1cc(F)cc(C(F)(F)F)c1)c1cc(-c2ccccc2)oc1C(F)(F)F`
a: 5 to 10 µM

* * *

- System: MDA-MB-231
- experimental-protocol: IC50 cell-based assay, adherent cells, MDA-MB-231
- reported-conditions: Homo sapiens, Breast, triple neg, 72 hours, read-out: IC50 of Compounds in Adherent Cell Types
recorded-endpoint: IC50

Recorded IC50, per entry:
* O=C(Nc1cc(C(F)(F)F)cc(C(F)(F)F)c1)c1cc(-c2ccccc2)oc1C(F)(F)F | < 5 µM
* O=C(Nc1cc(F)cc(C(F)(F)F)c1)c1cc(-c2ccc(Cl)cc2)oc1C(F)(F)F | 5 to 10 µM
* O=C(Nc1cc(F)cc(C(F)(F)F)c1)c1cc(-c2ccccc2)oc1C(F)(F)F | 5 to 10 µM
* O=C(Nc1cc(C(F)(F)F)cc(C(F)(F)F)c1)c1cc(-c2ccc(Br)cc2)oc1C(F)(F)F | 5 to 10 µM
* Cc1oc(-c2ccccc2)cc1C(=O)Nc1cc(C(F)(F)F)cc(C(F)(F)F)c1 | > 20 µM

q: Please indicate IC50 recorded for `O=C(Nc1cc(F)cc(C(F)(F)F)c1)c1cc(-c2ccc(Br)cc2)oc1C(F)(F)F`
a: 10 to 20 µM

q: Please report the measured IC50 for `O=C(Nc1cc(C(F)(F)F)cc(C(F)(F)F)c1)c1cc(-c2ccc(Cl)cc2)oc1C(F)(F)F`
a: < 5 µM

* * *

- Tested on: Mia PaCa-2
- experimental-protocol: IC50 cell-based assay, adherent cells, Mia PaCa-2
- reported-conditions: Homo sapiens, Pancreas, carcinoma, 72 hours, read-out: IC50 of Compounds in Adherent Cell Types
recorded-endpoint: IC50

q: Please supply the value of reported IC50 for the item `O=C(Nc1cc(C(F)(F)F)cc(C(F)(F)F)c1)c1cc(-c2ccccc2)oc1C(F)(F)F`
a: < 5 µM

* * *

- System: A431
- experimental-protocol: IC50 cell-based assay, adherent cells, A431
- reported-conditions: Homo sapiens, A-431, Skin, epidermoid carcinoma, 72 hours, read-out: IC50 of Compounds in Adherent Cell Types
recorded-endpoint: IC50

* O=C(Nc1cc(C(F)(F)F)cc(C(F)(F)F)c1)c1cc(-c2ccc(Cl)cc2)oc1C(F)(F)F [Compound 2] | < 5 µM
* O=C(Nc1cc(C(F)(F)F)cc(C(F)(F)F)c1)c1cc(-c2ccc(Br)cc2)oc1C(F)(F)F [Compound 3] | 5 to 10 µM
* O=C(Nc1cc(F)cc(C(F)(F)F)c1)c1cc(-c2ccc(Br)cc2)oc1C(F)(F)F [Compound 7] | 10 to 20 µM

q: Name the recorded IC50 of the item O=C(Nc1cc(C(F)(F)F)cc(C(F)(F)F)c1)c1cc(-c2ccccc2)oc1C(F)(F)F [Compound 1] in your answer.
a: < 5 µM

q: Supply IC50 value. Item: O=C(Nc1cc(F)cc(C(F)(F)F)c1)c1cc(-c2ccc(Cl)cc2)oc1C(F)(F)F [Compound 5]
a: > 20 µM

q: Tell me measured IC50 for O=C(Nc1cc(F)cc(C(F)(F)F)c1)c1cc(-c2ccccc2)oc1C(F)(F)F [Compound 6] please.
a: 5 to 10 µM

* * *

- Test system: U87-MG
- experimental-protocol: IC50 cell-based assay, adherent cells, U87-MG
- reported-conditions: Homo sapiens, U-87 MG, Brain, glioblastoma, 72 hours, read-out: IC50 of Compounds in Adherent Cell Types
pIC50: −log10 of the molar value.
recorded-endpoint: pIC50

Sample answers from the record:
- O=C(Nc1cc(F)cc(C(F)(F)F)c1)c1cc(-c2ccc(Br)cc2)oc1C(F)(F)F: < 4.70
- O=C(Nc1cc(C(F)(F)F)cc(C(F)(F)F)c1)c1cc(-c2ccc(Cl)cc2)oc1C(F)(F)F: 5.00 to 5.30
- O=C(Nc1cc(C(F)(F)F)cc(C(F)(F)F)c1)c1cc(-c2ccc(Br)cc2)oc1C(F)(F)F: 5.00 to 5.30
- O=C(Nc1cc(F)cc(C(F)(F)F)c1)c1cc(-c2ccc(Cl)cc2)oc1C(F)(F)F: 4.70 to 5.00
- O=C(Nc1cc(C(F)(F)F)cc(C(F)(F)F)c1)c1cc(-c2ccccc2)oc1C(F)(F)F: > 5.30

Okay, now this molecule:
q: Identify pIC50 associated with the molecule `O=C(Nc1cc(F)cc(C(F)(F)F)c1)c1cc(-c2ccccc2)oc1C(F)(F)F`
a: 4.70 to 5.00

* * *

- Test system: triple negative breast cancer cell line MDA-MB-468
- experimental-protocol: IC50 cell-based assay, adherent cells, MDA-MB-468
- reported-conditions: Homo sapiens; MDA-MB-468 cells; Table 3; read-out: IC50 of Compounds in MDA-MB-468 Cells
recorded-endpoint: pIC50
# pIC50 = -log10(concentration in molar units)

Worked examples, 5 compounds total:
- O=C(Nc1cc(C(F)(F)F)cc(C(F)(F)F)c1)c1cc(-c2ccc(Br)cc2)oc1C(F)(F)F [Compound 3]: 5.82
- O=C(Nc1cc(F)cc(C(F)(F)F)c1)c1cc(-c2ccc(Br)cc2)oc1C(F)(F)F [Compound 7]: 5.30
- O=C(Nc1cc(C(F)(F)F)cc(C(F)(F)F)c1)c1cc(-c2ccc(Cl)cc2)oc1C(F)(F)F [Compound 2]: 5.82
- O=C(Nc1cc(F)cc(C(F)(F)F)c1)c1cc(-c2ccc(Cl)cc2)oc1C(F)(F)F [Compound 5]: 5.40
- COc1ccc(-c2cc(C(=O)Nc3cc(C(F)(F)F)cc(C(F)(F)F)c3)c(C(F)(F)F)o2)cc1 [Compound 8]: 5.70

q: Retrieve pIC50 measured for O=C(Nc1cc(C(F)(F)F)cc(C(F)(F)F)c1)c1cc(-c2ccccc2)oc1C(F)(F)F [Compound 1] and print it.
a: 5.82

q: Using the record for O=C(Nc1cc(F)cc(C(F)(F)F)c1)c1cc(-c2ccccc2)oc1C(F)(F)F [Compound 6] , state its measured pIC50.
a: 5.40

* * *

Entries and their IC50 values follow.
- Tested on: RT-4
- experimental-protocol: IC50 cell-based assay, adherent cells, RT-4
- reported-conditions: Homo sapiens, Bladder, papilloma, 72 hours, read-out: IC50 of Compounds in Adherent Cell Types

- O=C(Nc1cc(F)cc(C(F)(F)F)c1)c1cc(-c2ccc(Cl)cc2)oc1C(F)(F)F [Compound 5]: > 20 µM
- O=C(Nc1cc(F)cc(C(F)(F)F)c1)c1cc(-c2ccc(Br)cc2)oc1C(F)(F)F [Compound 7]: > 20 µM
- O=C(Nc1cc(C(F)(F)F)cc(C(F)(F)F)c1)c1cc(-c2ccccc2)oc1C(F)(F)F [Compound 1]: 10 to 20 µM
- O=C(Nc1cc(F)cc(C(F)(F)F)c1)c1cc(-c2ccccc2)oc1C(F)(F)F [Compound 6]: > 20 µM
- O=C(Nc1cc(C(F)(F)F)cc(C(F)(F)F)c1)c1cc(-c2ccc(Cl)cc2)oc1C(F)(F)F [Compound 2]: > 20 µM

Please turn your attention to the following entry.
q: Report IC50 for O=C(Nc1cc(C(F)(F)F)cc(C(F)(F)F)c1)c1cc(-c2ccc(Br)cc2)oc1C(F)(F)F [Compound 3]
a: > 20 µM
